// provenance: ChEMBL document CHEMBL1201862

Known GI50 of a selection of molecules
- Test system: K562
- TEST_PROTOCOL: NCI tumour cell line growth inhibition, 48 h
Calls of active or inactive are those of the source. Rule as the data show it: active = GI50 up to about 1.1 µM and inactive = higher.

MOLECULE | GI50
Cc1ccc2c(C3Cc4ccccc4N3C(=O)/C=C\C(=O)O)c(C)[nH]c2c1 (stereo not given) | 22.2 µM (inactive)
Cn1c2ccccc2c2ccc3c(c21)C(=O)C=CC3=O | 1.75 µM (inactive)
CN(C)CCNC(=O)c1cc([N+](=O)[O-])ccn1 | 21.5 µM (inactive)
O=C(c1ccccc1)N1CCC(Nc2nccs2)O1 (stereo not given) | > 10 µM (inactive)
CCOC(=O)CCC(C(=O)OCC)n1nc2ccc(Nc3c(C)[n+]([O-])c4ccc(Cl)cc4[n+]3[O-])cc2n1 (stereo not given) | 41.4 µM (inactive)
CC(C)(C)C(=O)C(c1ccc(-c2cscn2)cc1)c1ccc(-c2cscn2)cc1 | > 92.9 µM (inactive)
CCOC(=O)N1C=CC(=C2C(=C3C=CN(C(=O)OCC)C=C3)C(=C3C=CN(C(=O)OCC)C=C3)C2=C2C=CN(C(=O)OCC)C=C2)C=C1 | 23.8 µM (inactive)
COc1ccc(/C=N/N=C(\N)NO)c(OC)c1 | 15.7 µM (inactive)

# input Given the molecule Cc1nnc2cc(C(=O)O)c3ccccc3n2c1=O , what is its reported GI50?
# output > 10 µM (inactive)

# input Can you check Clc1ccc(/C=C/c2csnn2)cc1 next?
# output > 100 µM (inactive)
